Target: Cannabinoid receptor 2 (Homo sapiens, UniProt P34972)
Sequence (P34972 whole entry): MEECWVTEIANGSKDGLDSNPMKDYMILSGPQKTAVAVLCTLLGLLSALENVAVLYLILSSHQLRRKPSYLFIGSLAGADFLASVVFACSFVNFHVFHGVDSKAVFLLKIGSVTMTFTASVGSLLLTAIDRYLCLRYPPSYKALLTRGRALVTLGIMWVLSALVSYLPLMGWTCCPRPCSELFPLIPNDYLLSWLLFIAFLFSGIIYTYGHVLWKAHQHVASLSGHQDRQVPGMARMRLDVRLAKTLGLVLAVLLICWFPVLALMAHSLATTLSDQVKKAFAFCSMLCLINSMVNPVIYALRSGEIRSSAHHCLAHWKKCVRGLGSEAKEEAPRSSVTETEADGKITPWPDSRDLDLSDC
Assay: Agonist activity at human recombinant CB2 receptor expressed in HEK293 cells coexpressing Galphaq/o5 assessed as calcium mobilization by FLIPR assay relative to CP-55940
Assay type: functional, cell-based

[
  {
    "compound": "CC1(C)C(C(=O)c2cn(CC3CCOC3)c3ccccc23)C1(C)C (stereo not drawn)",
    "measure.unit": "%",
    "Activity": 102
  },
  {
    "compound": "CC1(C)C(C(=O)c2cn(CCc3ccccn3)c3ccccc23)C1(C)C",
    "measure.unit": "%",
    "Activity": 59
  },
  {
    "compound": "CC1(C)C(C(=O)c2cn(CCc3ccsc3)c3ccccc23)C1(C)C",
    "measure.unit": "%",
    "Activity": 108
  },
  {
    "compound": "COC(=O)CCn1cc(C(=O)C2C(C)(C)C2(C)C)c2ccccc21",
    "measure.unit": "%",
    "Activity": 109
  },
  {
    "compound": "CC1(C)C(C(=O)c2cn(CCc3cccnc3)c3ccccc23)C1(C)C",
    "measure.unit": "%",
    "Activity": 78
  },
  {
    "compound": "CC1(C)C(C(=O)c2cn(Cc3ccncc3)c3ccccc23)C1(C)C",
    "measure.unit": "%",
    "Activity": 99
  },
  {
    "compound": "CC[C@H]1CC[C@H](C(=O)c2cn(CCN3CCOCC3)c3ccccc23)CC1",
    "measure.unit": "%",
    "Activity": 59
  },
  {
    "compound": "CC1(C)C(C(=O)c2cn(CCN3CCCC3)c3ccccc23)C1(C)C",
    "measure.unit": "%",
    "Activity": 84
  }
]

---

Biological target: Cannabinoid receptor 1 (Homo sapiens, UniProt P21554)
Sequence (P21554 whole entry): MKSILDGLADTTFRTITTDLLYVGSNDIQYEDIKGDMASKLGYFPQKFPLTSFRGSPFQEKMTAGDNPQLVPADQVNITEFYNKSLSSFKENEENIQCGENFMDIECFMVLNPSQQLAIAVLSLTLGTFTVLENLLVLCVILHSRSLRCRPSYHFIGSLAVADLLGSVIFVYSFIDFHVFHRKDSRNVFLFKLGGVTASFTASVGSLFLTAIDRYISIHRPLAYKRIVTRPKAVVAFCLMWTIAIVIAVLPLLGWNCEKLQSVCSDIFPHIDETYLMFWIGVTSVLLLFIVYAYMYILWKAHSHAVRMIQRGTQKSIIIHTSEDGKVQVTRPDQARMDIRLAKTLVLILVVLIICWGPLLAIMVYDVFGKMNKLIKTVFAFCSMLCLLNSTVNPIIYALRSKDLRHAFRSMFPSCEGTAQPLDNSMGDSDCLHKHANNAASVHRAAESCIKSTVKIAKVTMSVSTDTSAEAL
Experiment: Displacement of [3H]CP-55940 from human recombinant CB1 receptor expressed in CHO cells
Format: cell-based
Details: read-out: Ki
Reported Ki values are given for each entry in this list.

[
  {
    "compound": "CC1(C)C(C(=O)c2cn(CCN3CCCCCC3)c3ccccc23)C1(C)C",
    "limit.sign": "=",
    "Ki / nM": 790
  },
  {
    "compound": "CC1(C)C(C(=O)c2cn(CCCO)c3ccccc23)C1(C)C",
    "limit.sign": "=",
    "Ki / nM": 2200
  },
  {
    "compound": "CSCCCCn1cc(C(=O)C2C(C)(C)C2(C)C)c2ccccc21",
    "limit.sign": "=",
    "Ki / nM": 39
  },
  {
    "compound": "CC1(C)C(C(=O)c2cn(CCC3CCOCC3)c3ccccc23)C1(C)C",
    "limit.sign": "=",
    "Ki / nM": 92
  },
  {
    "compound": "CCCCCn1cc(C(=O)C2C(C)(C)C2(C)C)c2ccccc21",
    "limit.sign": "=",
    "Ki / nM": 150
  },
  {
    "compound": "O=C(c1cn(CCN2CCOCC2)c2ccccc12)C1CCCCC1",
    "limit.sign": "=",
    "Ki / nM": 1630
  },
  {
    "compound": "CCCCn1cc(C(=O)C2C(C)(C)C2(C)C)c2ccccc21",
    "limit.sign": "=",
    "Ki / nM": 91
  },
  {
    "compound": "CC1(C(=O)c2cn(CCN3CCOCC3)c3ccccc23)CC1(Cl)Cl (centres undefined)",
    "limit.sign": ">",
    "Ki / nM": 10000
  },
  {
    "compound": "CC1(C)C(C(=O)c2cn(CCCN3CCOCC3)c3ccccc23)C1(C)C",
    "limit.sign": ">",
    "Ki / nM": 10000
  },
  {
    "compound": "CC1(C)C(C(=O)c2cn(CCc3ccccn3)c3ccccc23)C1(C)C",
    "limit.sign": "=",
    "Ki / nM": 1900
  },
  {
    "compound": "CN1CCCC1CCn1cc(C(=O)C2C(C)(C)C2(C)C)c2ccccc21 (centres undefined)",
    "limit.sign": ">",
    "Ki / nM": 10000
  },
  {
    "compound": "CC1(C)C(C(=O)c2cn(CCN3CCNCC3)c3ccccc23)C1(C)C",
    "limit.sign": ">",
    "Ki / nM": 10000
  },
  {
    "compound": "CC1(C(=O)c2cn(CC3CCOCC3)c3ccccc23)CC1(Cl)Cl (centres undefined)",
    "limit.sign": "=",
    "Ki / nM": 3360
  },
  {
    "compound": "CC1(C)C(C(=O)c2cn(CCCCCO)c3ccccc23)C1(C)C",
    "limit.sign": "=",
    "Ki / nM": 680
  },
  {
    "compound": "O=C(c1cn(CC2CCOCC2)c2ccccc12)C12CC3CC(CC1C3)C2",
    "limit.sign": "=",
    "Ki / nM": 73
  },
  {
    "compound": "O=C(c1cn(CC2CCOCC2)c2ccccc12)C1CCCC1",
    "limit.sign": "=",
    "Ki / nM": 131
  },
  {
    "compound": "O=C(c1cn(CCN2CCOCC2)c2ccccc12)C1CCCCCC1",
    "limit.sign": "=",
    "Ki / nM": 362
  },
  {
    "compound": "CN1CCN(CCn2cc(C(=O)C3C(C)(C)C3(C)C)c3ccccc32)CC1",
    "limit.sign": "=",
    "Ki / nM": 2150
  },
  {
    "compound": "CC1(C)C(C(=O)c2cn(CCc3cccnc3)c3ccccc23)C1(C)C",
    "limit.sign": ">",
    "Ki / nM": 10000
  }
]
